- Tgt: recombinant human PKM2 (Homo sapiens)
- Construct: His (N); purchased R&D Systems
- Sequence (P14618 2-531 limits assumed): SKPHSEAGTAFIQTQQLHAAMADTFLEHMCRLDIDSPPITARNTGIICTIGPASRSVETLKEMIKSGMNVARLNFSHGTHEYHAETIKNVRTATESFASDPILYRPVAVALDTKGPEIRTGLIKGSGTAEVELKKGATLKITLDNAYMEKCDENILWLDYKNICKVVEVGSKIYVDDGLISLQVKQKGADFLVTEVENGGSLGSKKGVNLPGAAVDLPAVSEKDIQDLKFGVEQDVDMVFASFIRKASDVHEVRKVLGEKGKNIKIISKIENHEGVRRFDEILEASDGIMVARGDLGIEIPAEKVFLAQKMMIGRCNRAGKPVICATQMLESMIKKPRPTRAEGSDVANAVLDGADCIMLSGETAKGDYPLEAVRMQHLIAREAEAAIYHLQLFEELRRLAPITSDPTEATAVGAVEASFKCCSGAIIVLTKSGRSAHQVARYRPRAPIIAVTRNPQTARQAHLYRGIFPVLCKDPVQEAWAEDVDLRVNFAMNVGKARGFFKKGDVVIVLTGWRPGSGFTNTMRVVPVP
- Test: Human PKM2 activation assay (Kinase-Glo Plus luminescent detection of generated ATP)
- Type: biochemical
- Condition: percentage activation normalised to DMSO vehicle (LOW) and 5 μM TEPP-46 (HIGH); read-out: hPKM2 Emax
Observation Type: Emax (%)

Cc1cccc(S(=O)(=O)c2ccc3c(=O)n(Cc4cc[nH]n4)ncc3c2)n1; 93.9
CCOc1ccc(S(=O)(=O)c2ccc3c(=O)n(Cc4ccn(C)n4)ncc3c2)cc1; 103
COc1ccc(Cn2ncc3cc(S(=O)(=O)c4ccc(Cl)cc4)ccc3c2=O)cn1; 71.6
Cc1ccc(F)c(Cn2ncc3cc(S(=O)(=O)c4cn[nH]c4)ccc3c2=O)n1; 105
O=c1c2cc(NCCO)c(S(=O)(=O)c3ccccc3)cc2cnn1Cc1ccn(C2CC2)n1; 114
COc1ccc(S(=O)(=O)c2ccc3c(=O)n(Cc4c(C)ccnc4O)ncc3c2)cc1; 107
Cc1cccc(Cn2ncc3cc(S(=O)(=O)c4csc(C(C)O)n4)ccc3c2=O)n1 (centres unmarked); 109
COCC(c1ccccc1)n1ncc2cc(S(=O)(=O)c3ccccc3)ccc2c1=O (centres unmarked); 91.4
